Conditions: in n-butanol, 303.1 K
OBSERVABLE: solubility (mole fraction)
One number for each entry.

Quote solubility (mole fraction) reported for CC(=O)Oc1cc(C)c(OC(C)=O)c2ccccc12 please.
0.00794

====

Conditions: in n-propanol, 303.1 K
OBSERVABLE: solubility (mole fraction)
Give bare numbers.

Quote solubility (mole fraction) reported for CC(=O)Oc1cc(C)c(OC(C)=O)c2ccccc12 please.
0.00799

====

Details: in isopentanol, 298.1 K
OBSERVABLE: solubility (mole fraction)
Give bare numbers.

Quote solubility (mole fraction) reported for CC(=O)Oc1cc(C)c(OC(C)=O)c2ccccc12 please.
0.0056

====

Details: in isopropanol, 323.1 K
OBSERVABLE: solubility (mole fraction)

Quote solubility (mole fraction) reported for CC(=O)Oc1cc(C)c(OC(C)=O)c2ccccc12 please.
0.0209
